assay target: Muscarinic acetylcholine receptor M1 (Homo sapiens, UniProt P11229); further: assay procedure not described here
Sequence (P11229 whole entry): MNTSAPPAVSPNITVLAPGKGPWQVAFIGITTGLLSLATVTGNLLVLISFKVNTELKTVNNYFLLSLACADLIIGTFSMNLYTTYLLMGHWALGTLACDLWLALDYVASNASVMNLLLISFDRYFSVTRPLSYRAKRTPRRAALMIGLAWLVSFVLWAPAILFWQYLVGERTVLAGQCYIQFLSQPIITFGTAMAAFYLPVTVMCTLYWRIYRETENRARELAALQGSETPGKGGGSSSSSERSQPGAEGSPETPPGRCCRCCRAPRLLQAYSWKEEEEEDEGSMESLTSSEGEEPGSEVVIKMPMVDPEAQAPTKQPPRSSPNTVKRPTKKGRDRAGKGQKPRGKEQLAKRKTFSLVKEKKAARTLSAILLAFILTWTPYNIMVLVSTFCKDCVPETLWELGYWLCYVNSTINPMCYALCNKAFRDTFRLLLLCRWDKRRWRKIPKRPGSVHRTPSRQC
Assay type: functional, cell-based
experimental readout: AC50

Examples with their reported AC50 follow.
>  <compound>
COc1cc([C@@H]2c3cc4c(cc3[C@@H](O[C@@H]3O[C@@H]5CO[C@@H](c6cccs6)O[C@H]5[C@H](O)[C@H]3O)[C@H]3COC(=O)[C@H]23)OCO4)cc(OC)c1O [TENIPOSIDE]

>  <AC50>
> 30 µM

$$$$
>  <compound>
CCCCOc1ccc(CC(=O)NO)cc1 [BUFEXAMAC]

>  <AC50>
> 30 µM

$$$$
>  <compound>
N[C@@H](Cc1c[nH]c2ccc(O)cc12)C(=O)O [OXITRIPTAN]

>  <AC50>
> 30 µM

$$$$

Lookup: GET /values?readout=AC50&item= NC(=O)NCCC[C@H](N)C(=O)O [L-CITRULLINE]
Found: > 30 µM

Lookup: Which AC50 value is on record for CCOC(=O)[C@H](CCc1ccccc1)N[C@H]1CS[C@H](c2cccs2)CN(CC(=O)O)C1=O [TEMOCAPRIL] ?
Found: > 30 µM

Lookup: Please report the recorded AC50 for C[C@]12CC[C@@H]3c4ccc(O)cc4CC[C@H]3[C@@H]1CC[C@@H]2OC(=O)CCC1CCCC1 [ESTRADIOL CYPIONATE] .
Found: > 30 µM

---

assay target: Gamma-aminobutyric acid receptor subunit alpha-1 (Rattus norvegicus); further: assay procedure not described here
Sequence (P62813 whole entry): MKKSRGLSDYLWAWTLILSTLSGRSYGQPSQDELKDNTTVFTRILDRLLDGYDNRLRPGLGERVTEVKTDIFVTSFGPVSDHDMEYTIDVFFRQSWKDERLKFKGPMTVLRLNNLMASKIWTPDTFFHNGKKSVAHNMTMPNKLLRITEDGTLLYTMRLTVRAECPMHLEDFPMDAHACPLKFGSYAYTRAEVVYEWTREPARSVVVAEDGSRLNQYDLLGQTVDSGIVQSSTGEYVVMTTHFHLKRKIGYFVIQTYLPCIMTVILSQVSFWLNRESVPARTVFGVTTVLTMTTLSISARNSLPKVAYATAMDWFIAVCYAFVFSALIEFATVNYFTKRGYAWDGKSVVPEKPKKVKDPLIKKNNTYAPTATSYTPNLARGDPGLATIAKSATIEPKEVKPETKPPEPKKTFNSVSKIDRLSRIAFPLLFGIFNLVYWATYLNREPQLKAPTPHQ
Each item that follows carries a reported AC50.

Lookup: Give the measured AC50 of CCCCCCNC(=O)n1cc(F)c(=O)[nH]c1=O [CARMOFUR] .
Found: > 30 µM

Lookup: Entry under review: CCc1oc2ccccc2c1C(=O)c1cc(Br)c(O)c(Br)c1 [BENZBROMARONE] . Reported AC50?
Found: > 10 µM

Lookup: # query: AC50 of entry N[C@H](Cc1cc(I)c(Oc2cc(I)c(O)c(I)c2)c(I)c1)C(=O)O [DEXTROTHYROXINE]
Found: > 10 µM

Lookup: Bench note: what AC50 did N=C(N)NCCCCCCC(=O)NC(O)C(=O)NCCCCNCCCN (stereo not drawn) show?
Found: > 30 µM

Lookup: Could you tell me which AC50 is on file for COc1c(O[C@@H]2O[C@H](CO)[C@@H](O)[C@H](O)[C@H]2O)cc2c(c1OC)-c1ccc(SC)c(=O)cc1[C@@H](NC(C)=O)CC2 [THIOCOLCHICOSIDE] ?
Found: 6.2 µM

---

As an illustration, consider measured AC50 for compounds on Neurotensin receptor type 1 (Homo sapiens).
Sequence (P30989 whole entry): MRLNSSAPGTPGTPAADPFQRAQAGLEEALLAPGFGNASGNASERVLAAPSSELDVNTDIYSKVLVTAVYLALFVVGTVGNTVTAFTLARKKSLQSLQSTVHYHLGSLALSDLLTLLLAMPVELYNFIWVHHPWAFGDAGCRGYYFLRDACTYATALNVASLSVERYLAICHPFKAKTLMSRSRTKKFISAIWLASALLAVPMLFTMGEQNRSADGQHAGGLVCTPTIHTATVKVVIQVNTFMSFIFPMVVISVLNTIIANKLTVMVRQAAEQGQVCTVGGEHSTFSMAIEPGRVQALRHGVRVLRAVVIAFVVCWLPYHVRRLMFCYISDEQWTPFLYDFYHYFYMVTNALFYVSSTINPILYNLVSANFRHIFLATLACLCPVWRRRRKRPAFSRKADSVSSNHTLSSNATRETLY

These recorded examples may help you get a feel for the data.
>  <compound>
Cn1c(=O)c2[nH]cnc2n(C)c1=O

>  <assay target>
Neurotensin receptor type 1 (Homo sapiens); further: assay procedure not described here

>  <experimental readout>
AC50

>  <result>
> 30 µM

$$$$
>  <compound>
N#C[C@@H]1CCCN1C(=O)CNC12CC3CC(CC(O)(C3)C1)C2

>  <assay target>
Neurotensin receptor type 1 (Homo sapiens); further: assay procedure not described here

>  <experimental readout>
AC50

>  <result>
> 10 µM

$$$$
>  <compound>
CC1(C)O[C@@H]2[C@@H](CO[C@@]3(COS(N)(=O)=O)OC(C)(C)O[C@@H]23)O1 [TOPIRAMATE]

>  <assay target>
Neurotensin receptor type 1 (Homo sapiens); further: assay procedure not described here

>  <experimental readout>
AC50

>  <result>
> 30 µM

$$$$
>  <compound>
O=C1NC(=O)C(c2ccccc2)(c2ccccc2)N1

>  <assay target>
Neurotensin receptor type 1 (Homo sapiens); further: assay procedure not described here

>  <experimental readout>
AC50

>  <result>
> 30 µM

$$$$
>  <compound>
N[C@H](Cc1cc(I)c(Oc2cc(I)c(O)c(I)c2)c(I)c1)C(=O)O

>  <assay target>
Neurotensin receptor type 1 (Homo sapiens); further: assay procedure not described here

>  <experimental readout>
AC50

>  <result>
4.8 µM

$$$$
>  <compound>
CCCC(C)(COC(N)=O)COC(=O)NC(C)C (configuration not stated)

>  <assay target>
Neurotensin receptor type 1 (Homo sapiens); further: assay procedure not described here

>  <experimental readout>
AC50

>  <result>
> 30 µM

$$$$

Lookup: Report AC50 for NCCCC(O)(P(=O)(O)O)P(=O)(O)O tested on Neurotensin receptor type 1 (Homo sapiens). Further: assay procedure not described here.
Found: > 30 µM
